Entries annotated with measured relative viability
# System: PC-14
# method_description: relative viability (nuclei count vs DMSO), 5 days (fraction); higher = more cells survive
# experimental_conditions: first compound 0.01 µM
parameter: relative viability

{"molecule": "NC(=O)Nc1cc(-c2cccc(F)c2)sc1C(=O)N[C@H]1CCCNC1 [AZD7762] + CCNC(=O)c1noc(-c2cc(C(C)C)c(O)cc2O)c1-c1ccc(CN2CCOCC2)cc1 [Luminespib] (partner 0.01 µM)", "target_of_assay": "PC-14", "value_measured": 0.162}
{"molecule": "NC(=O)Nc1cc(-c2cccc(F)c2)sc1C(=O)N[C@H]1CCCNC1 [AZD7762] + C[C@]1(O)C[C@@H](c2nc(-c3ccc4ccc(-c5ccccc5)nc4c3)c3c(N)nccn32)C1 [Linsitinib] (partner 1 µM)", "target_of_assay": "PC-14", "value_measured": 0.975}
{"molecule": "NC(=O)Nc1cc(-c2cccc(F)c2)sc1C(=O)N[C@H]1CCCNC1 [AZD7762] + CC(C)C[C@H](NC(=O)[C@H](Cc1ccccc1)NC(=O)c1cnccn1)B(O)O [Bortezomib] (partner 0.002 µM)", "target_of_assay": "PC-14", "value_measured": 0.848}
{"molecule": "NC(=O)Nc1cc(-c2cccc(F)c2)sc1C(=O)N[C@H]1CCCNC1 [AZD7762] + COc1cccc2cc(-c3nc([C@H]4CC[C@H](C(=O)O)CC4)n4ncnc(N)c34)[nH]c12 [OSI-027] (partner 0.5 µM)", "target_of_assay": "PC-14", "value_measured": 0.847}

---

# System: NCI-H2087
# method_description: relative viability (nuclei count vs DMSO), 5 days (fraction); higher = more cells survive
# experimental_conditions: first compound 0.04 µM
Hi! Just check whether relative viability is below 0.3. Below gives True, equal or above gives False.

{"compound": "O=C(O)c1ccc(-c2c[nH]c3ncc(-c4ccccc4)cc23)cc1C1CCCC1 + CC(=O)Nc1cccc(-n2c(=O)n(C3CC3)c(=O)c3c(Nc4ccc(I)cc4F)n(C)c(=O)c(C)c32)c1 [Trametinib] (partner 0.02 µM)", "group": "True"}
{"compound": "O=C(O)c1ccc(-c2c[nH]c3ncc(-c4ccccc4)cc23)cc1C1CCCC1 + Cc1cc(Nc2cc(N3CCN(C)CC3)nc(Sc3ccc(NC(=O)C4CC4)cc3)n2)n[nH]1 [Tozasertib] (partner 0.1 µM)", "group": "True"}
{"compound": "O=C(O)c1ccc(-c2c[nH]c3ncc(-c4ccccc4)cc23)cc1C1CCCC1 + C[C@]1(O)C[C@@H](c2nc(-c3ccc4ccc(-c5ccccc5)nc4c3)c3c(N)nccn32)C1 [Linsitinib] (partner 1 µM)", "group": "False"}
{"compound": "O=C(O)c1ccc(-c2c[nH]c3ncc(-c4ccccc4)cc23)cc1C1CCCC1 + Nc1ncn([C@H]2C[C@H](O)[C@@H](CO)O2)c(=O)n1 [Decitabine] (partner 2 µM)", "group": "True"}
{"compound": "O=C(O)c1ccc(-c2c[nH]c3ncc(-c4ccccc4)cc23)cc1C1CCCC1 + O=C(CCCCCCC(=O)Nc1ccccc1)NO [Vorinostat] (partner 1 µM)", "group": "False"}

---

Entries annotated with measured relative viability
# System: EMC-BAC-2
# method_description: relative viability (nuclei count vs DMSO), 5 days (fraction); higher = more cells survive
# experimental_conditions: first compound 0.4 µM
parameter: relative viability

{"molecule": "O=C(O)c1ccc(-c2c[nH]c3ncc(-c4ccccc4)cc23)cc1C1CCCC1 + Cc1cc(Nc2cc(N3CCN(C)CC3)nc(Sc3ccc(NC(=O)C4CC4)cc3)n2)n[nH]1 [Tozasertib] (partner 0.1 µM)", "parameter": "relative viability", "value_measured": 0.272}
{"molecule": "O=C(O)c1ccc(-c2c[nH]c3ncc(-c4ccccc4)cc23)cc1C1CCCC1 + CS(=O)(=O)N1CCN(Cc2cc3nc(-c4cccc5[nH]ncc45)nc(N4CCOCC4)c3s2)CC1 [Pictilisib] (partner 1 µM)", "parameter": "relative viability", "value_measured": 0.537}
{"molecule": "O=C(O)c1ccc(-c2c[nH]c3ncc(-c4ccccc4)cc23)cc1C1CCCC1 + CCNC(=O)c1noc(-c2cc(C(C)C)c(O)cc2O)c1-c1ccc(CN2CCOCC2)cc1 [Luminespib] (partner 0.01 µM)", "parameter": "relative viability", "value_measured": 1.13}
{"molecule": "O=C(O)c1ccc(-c2c[nH]c3ncc(-c4ccccc4)cc23)cc1C1CCCC1 + CC(=O)c1c(C)c2cnc(Nc3ccc(N4CCNCC4)cn3)nc2n(C2CCCC2)c1=O [Palbociclib] (partner 0.5 µM)", "parameter": "relative viability", "value_measured": 0.529}
{"molecule": "O=C(O)c1ccc(-c2c[nH]c3ncc(-c4ccccc4)cc23)cc1C1CCCC1 + CC(=O)Nc1cccc(-n2c(=O)n(C3CC3)c(=O)c3c(Nc4ccc(I)cc4F)n(C)c(=O)c(C)c32)c1 [Trametinib] (partner 0.02 µM)", "parameter": "relative viability", "value_measured": 1.05}
{"molecule": "O=C(O)c1ccc(-c2c[nH]c3ncc(-c4ccccc4)cc23)cc1C1CCCC1 + COc1cc2c(Oc3ccc(NC(=O)C4(C(=O)Nc5ccc(F)cc5)CC4)cc3F)ccnc2cc1OCCCN1CCOCC1 [Foretinib] (partner 0.25 µM)", "parameter": "relative viability", "value_measured": 0.97}
{"molecule": "O=C(O)c1ccc(-c2c[nH]c3ncc(-c4ccccc4)cc23)cc1C1CCCC1 + Cc1nc(NC(=O)N2CCC[C@H]2C(N)=O)sc1-c1ccnc(C(C)(C)C(F)(F)F)c1 [Alpelisib] (partner 2 µM)", "parameter": "relative viability", "value_measured": 0.719}

Taken from the supplement of paper PMC10307832.
